molecular target: full length recombinant Pim-2 protein (Homo sapiens, UniProt Q9P1W9); construct: by full length recombinant Pim-1, Pim-2, or Pim-3 protein; hexahistidine tag followed by a thrombin cleavage site (N); made in house; host or cells: Sf9 (baculovirus) or E. coli (pET28); assay: Pim-2 enzyme assay (HTRF, phosphorylation of biotinylated-BAD (S112) peptide); type: biochemical; conditions: enzyme assay, Pim-2; read-out: Pim2_IC50
Sequence (Q9P1W9 whole entry): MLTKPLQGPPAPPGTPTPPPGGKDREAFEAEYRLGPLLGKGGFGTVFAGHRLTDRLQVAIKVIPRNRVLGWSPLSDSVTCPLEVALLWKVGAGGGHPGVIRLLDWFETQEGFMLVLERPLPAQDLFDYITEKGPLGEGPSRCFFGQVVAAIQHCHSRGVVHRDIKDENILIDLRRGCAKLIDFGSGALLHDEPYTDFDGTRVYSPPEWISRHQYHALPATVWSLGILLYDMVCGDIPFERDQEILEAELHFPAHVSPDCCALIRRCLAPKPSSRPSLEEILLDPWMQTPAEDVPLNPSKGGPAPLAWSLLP
Below is a list of entries, each paired with its recorded pIC50 value.
Please note pIC50 is a logarithmic value: minus log10 of concentration in mol/L. Answer with that number alone.

[
  {
    "compound": "NC1CCN(c2cncc(-c3n[nH]c4ccc(-c5cnc6ccccc6c5)cc34)n2)CC1 [Example 55]",
    "pIC50": 7.29
  }
]

Recorded result, CC(C)(C)NC(=O)c1ccc(F)c(-c2ccc3[nH]nc(-c4cncc(N5CCC(N)CC5)n4)c3c2)c1 [Example 37] , pIC50: 7.72

The reported value for Fc1cccc(F)c1-c1ccc2[nH]cc(-c3cncc(OC4CCNCC4)n3)c2c1 [Example 206] in terms of pIC50 is 7.27

---

target: Pim-2 stably transfected into the U2OS human osteogenic sarcoma line (Homo sapiens); construct: expressed in transfected cells; host or cells: U2OS human osteogenic sarcoma line; assay: Pim cell assay, phospho-BAD normalized against total BAD, U2OS stably transfected with Pim-2; assay type: cell-based; conditions: U2OS cells stably transfected with Pim-2, phospho-BAD; high dose […]; read-out: Pim2_Cell_IC50; further: high dose 31.6 µM
# Lookup of reported pIC50 keyed by entry
To interpret pIC50, take it as minus log10 of a concentration measured in moles per litre.

Completed entries (count: 3):
[
  {
    "compound": "Fc1cccc(Cl)c1-c1ccc2[nH]cc(-c3cncc(O[C@@H]4CCCNC4)n3)c2c1 [Example 26, bis(2,2,2-trifluoroacetate)]",
    "target": "Pim-2 stably transfected into the U2OS human osteogenic sarcoma line (Homo sapiens)",
    "pIC50": 5.43
  },
  {
    "compound": "CC(C)Oc1cncc(-c2ccc3[nH]nc(-c4cncc(N5CCC(N)CC5)n4)c3c2)n1",
    "target": "Pim-2 stably transfected into the U2OS human osteogenic sarcoma line (Homo sapiens)",
    "pIC50": 5.26
  },
  {
    "compound": "COc1cncc(-c2ccc3[nH]nc(-c4cncc(O[C@@H]5CCCNC5)n4)c3c2)c1",
    "target": "Pim-2 stably transfected into the U2OS human osteogenic sarcoma line (Homo sapiens)",
    "pIC50": 5.07
  }
]

Attention now turns to another entry.
Consider O=C(NC1CC1)c1cccc(-c2ccc3[nH]nc(-c4cncc(O[C@@H]5CCCNC5)n4)c3c2)c1 . Its measured pIC50 is 5.52

---

tested on: KMS-Cell; experiment: KMS cell IC50 (Table 4); type: cell-based; conditions: KMS cells
readout.type: IC50 (µM)
Provide only the numeric value, understood in µM.

These recorded examples may help you get a feel for the data.
[
  {
    "molecule": "CC1CNCC(Oc2nc(O)cc(-c3n[nH]c4ccc(-c5c(F)cccc5F)cc34)n2)C1 (single isomer, unassigned) [Example 569]",
    "IC50 (µM)": 0.282
  },
  {
    "molecule": "COC(=O)c1ccc2[nH]nc(-c3ccnc(NC4CCNCC4)n3)c2c1 [Example 489]",
    "IC50 (µM)": 1.69
  },
  {
    "molecule": "c1coc(-c2ccc3[nH]nc(-c4cncc(N[C@@H]5CCCNC5)n4)c3c2)n1 [Example 541]",
    "IC50 (µM)": 6.04
  },
  {
    "molecule": "CC1CCNCC1Oc1cncc(-c2n[nH]c3ccc(-c4c(F)cccc4F)cc23)n1 (single isomer, unassigned) [Example 424]",
    "IC50 (µM)": 6.28
  },
  {
    "molecule": "C=C(c1ccc2[nH]nc(-c3cncc(O[C@H]4CNCCC45CC5)n3)c2c1)C(F)(F)F [Example 257]",
    "IC50 (µM)": 1.17
  },
  {
    "molecule": "O=c1cc(-c2n[nH]c3ccc(-c4c(F)cccc4F)cc23)nc(OC2CNCCC2F)[nH]1 (stereo not shown) [Example 555]",
    "IC50 (µM)": 0.307
  },
  {
    "molecule": "COC(=O)c1ccc2[nH]nc(-c3cncc(O[C@H]4CNCCC45CC5)n3)c2c1 [Example 265]",
    "IC50 (µM)": 5.78
  },
  {
    "molecule": "CC(c1ccc2[nH]nc(-c3cncc(O[C@H]4CNCCC45CC5)n3)c2c1)C(F)(F)F (single isomer, unassigned) [Example 259]",
    "IC50 (µM)": 2.8
  },
  {
    "molecule": "c1cc2[nH]nc(-c3cncc(OC4CCNCC4)n3)c2cc1-c1cncc(C2CC2)n1 [Example 364]",
    "IC50 (µM)": 5.85
  },
  {
    "molecule": "CC(C)C1CCNCC1Oc1cncc(-c2n[nH]c3ccc(-c4c(F)cccc4F)cc23)n1 (single isomer, unassigned) [Example 395]",
    "IC50 (µM)": 10
  }
]

Entry CC[C@@H]1CCNC[C@H]1Oc1cncc(-c2n[nH]c3ccc(-c4c(F)cccc4F)cc23)n1 [Example 397] , IC50 reported as 14.3

What the record says about N#CCc1ccc2[nH]nc(-c3cncc(O[C@H]4CNCCC45CC5)n3)c2c1 [Example 269] : IC50 is 7.38

Documented IC50 of CC(=O)Nc1ccc(-c2ccc3[nH]nc(-c4cncc(O[C@H]5CNCCC56CC6)n4)c3c2)c(F)c1 [Example 462] : 0.56

Reported IC50 for Fc1ccc(Cl)cc1-c1ccc2[nH]nc(-c3cncc(O[C@H]4CNCCC45CC5)n3)c2c1 [Example 443] was 4.64
